The reported numbers originate from paper PMC12118597.

target: SARS-CoV-2 NSP3 macrodomain (Mac1) (Severe acute respiratory syndrome coronavirus 2, UniProt P0DTD1); type: binding; conditions: PanDDA background density correction factor
Readout Label: 1-BDC
Answers are plain numbers.

Solved entries (count: 4):
Molecule: Cc1c(C)n(Cc2ccccc2)c2ncnc(N)c12
1-BDC: 0.08

Molecule: OCC(Nc1ncnc2[nH]ccc12)C1CCOC1 (centres unmarked)
1-BDC: 0.16

Molecule: OCC(O)C1CCCN1c1ncnc2[nH]ccc12 (centres unmarked)
1-BDC: 0.18

Molecule: O=C(O)C(F)(F)F.O[C@H]1CCC[C@@H]1Nc1ncnc2[nH]ccc12
1-BDC: 0.11

Shift focus to the following entry.
### Prompt Request the reported 1-BDC associated with "O=C(O)C(F)(F)F.OCC1(Nc2ncnc3[nH]ccc23)CC1"
### Response 0.2

----------
target: SARS-CoV-2 NSP3 macrodomain (Mac1) (Severe acute respiratory syndrome coronavirus 2); type: binding; settings: crystallographic refinement
Provide the reported Refined ligand occupancy (%) of each item.
Answers are plain numbers, in %.

Compound: O[C@H]1CC[C@H]2CCN(c3ncnc4[nH]ccc34)[C@H]21
Test System: SARS-CoV-2 NSP3 macrodomain (Mac1) (Severe acute respiratory syndrome coronavirus 2)
Refined ligand occupancy (%): 70

State recorded Refined ligand occupancy (%) for all listed compounds.
1. CC(C)(O)C1C2CCCCC2CN1c1ncnc2[nH]ccc12 (centres unmarked)
2. O=S1(=O)CCCC(O)(CNc2ncnc3[nH]ccc23)C1 (centres unmarked)
3. Cc1c[nH]c2ncnc(NCC3(O)CCSCC3)c12
4. Cc1c[nH]c2ncnc(NCC3(O)CCC(O)CC3)c12 (centres unmarked)

### Response
1: 60; 2: 100; 3: 28; 4: 30

----------
target: SARS-CoV-2 NSP3 macrodomain (Mac1) (Severe acute respiratory syndrome coronavirus 2); format: binding; conditions: crystal soak 10 mM; DMSO background map
Readout Label: PanDDA run, DMSO background map: 1-BDC
Answers are plain numbers.

# count of solved cases: 8
Compound: OCC1COCCN1c1ncnc2[nH]ccc12 (stereo not shown) [AVI-3717]
Recorded Value: 0.14
//
Compound: Cc1ccc(CC(CO)Nc2ncnc3[nH]ccc23)cc1 (stereo not shown) [AVI-3683]
Recorded Value: 0.15
//
Compound: O[C@@H]1CN(c2ncnc3[nH]ccc23)C[C@H]1F [AVI-616]
Recorded Value: 0.2
//
Compound: OCC(CC1OCCO1)Nc1ncnc2[nH]ccc12 (stereo not shown) [AVI-3658]
Recorded Value: 0.2
//
Compound: CC1CCN(c2ncnc3[nH]ccc23)C1CO (stereo not shown) [AVI-3655]
Recorded Value: 0.21
//
Compound: OCC(Nc1ncnc2[nH]ccc12)C1CCc2ccccc21 (stereo not shown) [AVI-3693]
Recorded Value: 0.22
//
Compound: CO[C@@H]1C[C@H](CO)N(c2ncnc3[nH]ccc23)C1 [AVI-3656]
Recorded Value: 0.26
//
Compound: OCC(CC1CCC1)Nc1ncnc2[nH]ccc12 (stereo not shown) [AVI-3641]
Recorded Value: 0.18

For each of the compounds below, state PanDDA run, DMSO background map: 1-BDC.
1. OCC(Cc1nccs1)Nc1ncnc2[nH]ccc12 (stereo not shown) [AVI-3673]
2. OC(c1ccccc1)C1CCCN1c1ncnc2[nH]ccc12 (stereo not shown) [AVI-3652]

### Response
1. 0.19
2. 0.22

----------
target: SARS-CoV-2 NSP3 macrodomain (Mac1) (Severe acute respiratory syndrome coronavirus 2); experiment: biochemical; format: binding; details: HTRF binding curve, SARS-CoV-2 Mac1
Provide the reported Hill slope of each item.
Numbers only.

Molecule: OCC1CC=CCN1c1ncnc2[nH]ccc12 (stereo not shown)
Recorded Value: 1.3

Dear reader, for each entry below, please note its Hill slope.
1. CC1CCC(O)(CNc2ncnc3[nH]ccc23)CC1 (stereo not shown)
2. OC1(CNc2ncnc3[nH]ccc23)COC2CC1C2 (stereo not shown)
3. O[C@H]1CC[C@H]2CCN(c3ncnc4[nH]ccc34)[C@H]21
4. CC(C)(O)C1C2CCC2CN1c1ncnc2[nH]ccc12 (stereo not shown)
5. OC1(CNc2ncnc3[nH]ccc23)CCOCC1
6. CC(CNC(=O)c1ccc2c(c1)CCC(=O)N2)C(=O)O (stereo not shown)

### Response
1: 1.2; 2: 1.2; 3: 1.2; 4: 1.2; 5: 1.2; 6: 1.3

Hello, I would appreciate it if you could give Hill slope for each entry below.
1. OCC1CCC2(CCOCC2)CN1c1ncnc2[nH]ccc12 (stereo not shown)
2. Cc1c[nH]c2ncnc(NCC3(O)CCSCC3)c12
3. O=C(O)C(F)(F)F.OCC1(Nc2ncnc3[nH]ccc23)CCC1

### Response
1.2
1.2
1.2

----------
molecular target: SARS-CoV-2 NSP3 macrodomain (Mac1) (Severe acute respiratory syndrome coronavirus 2, UniProt P0DTD1); assay: biochemical; format: binding; details: HTRF binding curve, SARS-CoV-2 Mac1
Kindly supply the reported Hill slope values for the records listed here.
Give bare numbers.

Compound: OCC1C2CCC(C2)N1c1ncnc2[nH]ccc12 (stereo not shown) [AVI-3713]
Recorded Value: 1.1
//
Compound: OC1(CNc2ncnc3[nH]ccc23)CC2CCC1CC2 (stereo not shown) [AVI-4320]
Recorded Value: 1.1
//
Compound: OC1(CNc2ncnc3[nH]ccc23)CCCCC1 [AVI-6217]
Recorded Value: 1.1
//
Compound: Cc1c[nH]c2ncnc(NCC3(O)CCOCC3)c12 [AVI-4194]
Recorded Value: 1.3
//
Compound: OC1(CNc2ncnc3[nH]ccc23)CCCOC1 (stereo not shown) [AVI-4311]
Recorded Value: 1.4

Quick batch: Hill slope for everything below.
1. OC[C@@H]1C[C@H](O)CN1c1ncnc2[nH]ccc12 [AVI-610]
2. OCCC(CO)Nc1ncnc2[nH]ccc12 (stereo not shown) [AVI-3734]

### Response
1. 1.2
2. 1.2

----------
molecular target: SARS-CoV-2 NSP3 macrodomain (Mac1) (Severe acute respiratory syndrome coronavirus 2); format: binding; settings: site of ligand in X-ray crystal structure
Readout Label: Binding site

Example compounds with recorded Binding site:
Compound: CC(C)(CO)Nc1ncnc2[nH]ccc12
Test System: SARS-CoV-2 NSP3 macrodomain (Mac1) (Severe acute respiratory syndrome coronavirus 2)
Readout Label: Binding site
Recorded Value: Adenosine
--
Compound: OCC(Nc1ncnc2[nH]ccc12)C1CCC1 (stereo not drawn)
Test System: SARS-CoV-2 NSP3 macrodomain (Mac1) (Severe acute respiratory syndrome coronavirus 2)
Readout Label: Binding site
Recorded Value: Adenosine
--
Compound: OCC(Cc1cncs1)Nc1ncnc2[nH]ccc12 (stereo not drawn)
Test System: SARS-CoV-2 NSP3 macrodomain (Mac1) (Severe acute respiratory syndrome coronavirus 2)
Readout Label: Binding site
Recorded Value: Adenosine
--
Compound: OCC(CC1CCOC1)Nc1ncnc2[nH]ccc12 (stereo not drawn)
Test System: SARS-CoV-2 NSP3 macrodomain (Mac1) (Severe acute respiratory syndrome coronavirus 2)
Readout Label: Binding site
Recorded Value: Adenosine
--
Compound: O[C@H]1COC[C@@H]1Nc1ncnc2[nH]ccc12
Test System: SARS-CoV-2 NSP3 macrodomain (Mac1) (Severe acute respiratory syndrome coronavirus 2)
Readout Label: Binding site
Recorded Value: Adenosine

I need Binding site for every entry listed below, if you could help.
1. OCC(CC1CCCO1)Nc1ncnc2[nH]ccc12 (stereo not drawn)
2. OCC(CN1CCCCC1)Nc1ncnc2[nH]ccc12 (stereo not drawn)
3. OCC(CC1CCC1)Nc1ncnc2[nH]ccc12 (stereo not drawn)
4. Cc1ccccc1CC(CO)Nc1ncnc2[nH]ccc12 (stereo not drawn)

### Response
["Adenosine", "Adenosine", "Adenosine", "Adenosine"]

----------
molecular target: SARS-CoV-2 NSP3 macrodomain (Mac1) (Severe acute respiratory syndrome coronavirus 2, UniProt P0DTD1); format: binding; conditions: ligand conformations modeled in the crystal structure
Readout Label: Total number of conformations
Numbers only.

Example compounds with recorded Total number of conformations:
Compound: OCC1CC2(CCC2)CN1c1ncnc2[nH]ccc12 (centres unmarked)
Total number of conformations: 2
--
Compound: O=C(O)C(F)(F)F.OCC1(Nc2ncnc3[nH]ccc23)CC1
Total number of conformations: 1
--
Compound: OCC(Cc1cncs1)Nc1ncnc2[nH]ccc12 (centres unmarked)
Total number of conformations: 1
--
Compound: OC[C@@H]1C[C@@H]2CCC[C@@H]2N1c1ncnc2[nH]ccc12
Total number of conformations: 1

The record that follows has no Total number of conformations shown yet.
### Prompt Entry "O[C@@H]1CN(c2ncnc3[nH]ccc23)C[C@H]1F" has what Total number of conformations?
### Response 1

----------
target: SARS-CoV-2 NSP3 macrodomain (Mac1) (Severe acute respiratory syndrome coronavirus 2, UniProt P0DTD1); assay type: binding; details: crystal soak 10 mM; DMSO background map
Readout Label: PanDDA run, DMSO background map: Hit

Use these answered entries as a reference point.
Compound: O[C@H]1CC[C@@H]2CCN(c3ncnc4[nH]ccc34)[C@@H]21
Readout Label: PanDDA run, DMSO background map: Hit
Recorded Value: TRUE
--
Compound: CC1(C)CCC(CO)N(c2ncnc3[nH]ccc23)C1 (stereo not shown)
Readout Label: PanDDA run, DMSO background map: Hit
Recorded Value: TRUE
--
Compound: CCC(Nc1ncnc2[nH]ccc12)C(C)(C)O (stereo not shown)
Readout Label: PanDDA run, DMSO background map: Hit
Recorded Value: TRUE
--
Compound: OCC(Nc1ncnc2[nH]ccc12)c1ccccc1 (stereo not shown)
Readout Label: PanDDA run, DMSO background map: Hit
Recorded Value: TRUE
--
Compound: O=C(O)C(F)(F)F.OCC1(Nc2ncnc3[nH]ccc23)CCCC1
Readout Label: PanDDA run, DMSO background map: Hit
Recorded Value: TRUE

// batch mode: one PanDDA run, DMSO background map: Hit value per listed entry
1. CCCC(CO)Nc1ncnc2[nH]ccc12 (stereo not shown)
2. CC(C)(C)CC(CO)Nc1ncnc2[nH]ccc12 (stereo not shown)
3. CC1(C)C[C@@H](CO)N(c2ncnc3[nH]ccc23)C1.O=C(O)C(F)(F)F
4. OCC(Cc1nccs1)Nc1ncnc2[nH]ccc12 (stereo not shown)
5. O=C(O)C(F)(F)F.OCC1(Nc2ncnc3[nH]ccc23)CCC1

### Response
1: TRUE; 2: TRUE; 3: TRUE; 4: TRUE; 5: TRUE
